assay_details: Selectivity index, ratio of IC50 for human LO2 cells to IC50 for human Bel7402 cells
Assay type: toxicity
condition_label: LO2 cells versus Bel7402 cells, read-out: Ratio IC50
Label T when selectivity ratio is at or above 20; anything below gets F.

smiles_notation	group_label
C=C1C(=O)[C@]23[C@H](O)[C@H]1CC[C@H]2[C@@]12CO[C@]3(O)[C@@H](O)[C@@H]1C(C)(C)CC[C@@H]2O	F
COC(=O)[C@H](Cc1ccc(N(CCCl)CCCl)cc1)NC(=O)CCC(=O)O	F
C=C1C(=O)[C@@]23C(=O)O[C@H]4CCC(C)(C)[C@H]5[C@H](O)OC[C@@]45[C@@H]2CC[C@@H]1[C@H]3O	F
C=C1C(=O)[C@@]23C(=O)O[C@H]4CCC(C)(C)[C@H]5[C@H](O)OC[C@@]45[C@@H]2CC[C@@H]1[C@H]3OC(=O)CCCc1ccc(N(CCCl)CCCl)cc1	T
C=C1C(=O)[C@@]23C(=O)O[C@H]4CCC(C)(C)[C@H]5[C@H](O)OC[C@@]45[C@@H]2CC[C@@H]1[C@H]3OC(=O)c1ccc(N(CCCl)CCCl)cc1	T
C=C1C(=O)[C@@]23C(=O)O[C@H]4CCC(C)(C)[C@H]5C(=O)OC[C@@]45[C@@H]2CC[C@@H]1[C@H]3O	F
C=C1C(=O)[C@@]23C(=O)O[C@H]4CCC(C)(C)[C@H]5C(=O)OC[C@@]45[C@@H]2CC[C@@H]1[C@H]3OC(=O)CCCc1ccc(N(CCCl)CCCl)cc1	F
C=C1C(=O)[C@@]23C(=O)O[C@H]4CCC(C)(C)[C@H]5C(=O)OC[C@@]45[C@@H]2CC[C@@H]1[C@H]3OC(=O)c1ccc(N(CCCl)CCCl)cc1	T

----------
Here the recorded pIC50 is given for each entry.
System: L02
assay_details: Antiproliferative activity against human LO2 cells after 72 hrs by MTT assay
Assay type: cell-based
condition_label: L02, 72 h
pIC50: −log10 of the molar value.

smiles_notation	result_modifier	pIC50
C=C1C(=O)[C@@]23C(=O)O[C@H]4CCC(C)(C)[C@H]5C(=O)OC[C@@]45[C@@H]2CC[C@@H]1[C@H]3OC(=O)c1ccc(N(CCCl)CCCl)cc1	=	4.20
C=C1C(=O)[C@@]23C(=O)O[C@H]4CCC(C)(C)[C@H]5C(=O)OC[C@@]45[C@@H]2CC[C@@H]1[C@H]3OC(=O)CCCc1ccc(N(CCCl)CCCl)cc1	=	4.30
COC(=O)[C@H](Cc1ccc(N(CCCl)CCCl)cc1)NC(=O)CCC(=O)O	=	4.16
C=C1C(=O)[C@@]23C(=O)O[C@H]4CCC(C)(C)[C@H]5[C@H](OC(=O)CCC(=O)N[C@@H](Cc6ccc(N(CCCl)CCCl)cc6)C(=O)OC)OC[C@@]45[C@@H]2CC[C@@H]1[C@H]3OC(=O)CCC(=O)N[C@@H](Cc1ccc(N(CCCl)CCCl)cc1)C(=O)OC	<	4.00
C=C1C(=O)[C@@]23C(=O)O[C@H]4CCC(C)(C)[C@H]5[C@H](O)OC[C@@]45[C@@H]2CC[C@@H]1[C@H]3O	=	4.57
C=C1C(=O)[C@]23[C@H](O)[C@H]1CC[C@H]2[C@@]12CO[C@]3(O)[C@@H](O)[C@@H]1C(C)(C)CC[C@@H]2O	=	4.72
C=C1C(=O)[C@@]23C(=O)O[C@H]4CCC(C)(C)[C@H]5C(=O)OC[C@@]45[C@@H]2CC[C@@H]1[C@H]3OC(=O)CCC(=O)N[C@@H](Cc1ccc(N(CCCl)CCCl)cc1)C(=O)OC	<	4.00
C=C1C(=O)[C@@]23C(=O)O[C@H]4CCC(C)(C)[C@H]5[C@H](O)OC[C@@]45[C@@H]2CC[C@@H]1[C@H]3OC(=O)c1ccc(N(CCCl)CCCl)cc1	<	4.00
C=C1C(=O)[C@@]23C(=O)O[C@H]4CCC(C)(C)[C@H]5[C@H](O)OC[C@@]45[C@@H]2CC[C@@H]1[C@H]3OC(=O)CCCc1ccc(N(CCCl)CCCl)cc1	=	4.16
C=C1C(=O)[C@@]23C(=O)O[C@H]4CCC(C)(C)[C@H]5C(=O)OC[C@@]45[C@@H]2CC[C@@H]1[C@H]3O	=	4.59
O=C(O)CCCc1ccc(N(CCCl)CCCl)cc1	<	4.00

These data points were gathered from ChEMBL document CHEMBL4229335.
